# Measured target: heteromeric KV7.2/KV7.3 channels (KCNQ2, KCNQ3) (Homo sapiens, UniProt O43525+O43526)
# Test name: Automated patch-clamp (Sophion Qube 384) potency assay against KV7.2/KV7.3 channels
# Run parameters: CHO-K1/Kv7.2/Kv7.3 cells; EC50 from concentration-response of shift in Vhalf, 10 concentrations up to 30 μM; read-out: Kv7.2/7.3 EC50
Assay metric: pEC50
Lab note — pEC50 values are minus log10 of concentrations in M.

> print(dat)
                                   compound  value.measured
1  O=C(NCc1ccnc(OCC(F)(F)F)c1)N[C@@H]1CCc2ccc(C(F)(F)F)cc21            6.03
2     Cc1ccccc1NC(=O)NCc1ccnc(OCC(F)(F)F)c1            6.36
3  O=C(NCc1ccnc(OCC(F)(F)F)c1)N[C@@H]1CCOc2c(F)cccc21            5.70
4  O=C(NCc1ccnc(OCC(F)(F)F)c1)N[C@H]1c2ccccc2C[C@H]1CO            4.95

Item: O=C(NCc1ccnc(OCC(F)(F)F)c1)NC1CCc2ccc(C(F)(F)F)cc21 (centres unmarked) Test system: heteromeric KV7.2/KV7.3 channels (KCNQ2, KCNQ3) (Homo sapiens, UniProt O43525+O43526) Read-out: pEC50 Value: ?
5.72

Next compound: O=C(NCc1ccnc(OCC(F)(F)F)c1)N[C@@H]1CCOc2ccccc21
5.79

Next compound: O=C(NCc1ccnc(OCC(F)(F)F)c1)N[C@@H]1COc2ccccc21
5.55

Next compound: O=C(NCc1ccnc(OCC(F)(F)F)c1)N[C@@H]1CCO[C@H]1c1ccc(F)cc1
5.53
